# Tested on: Rabbit red blood cells
# method-summary: Hemolysis assay
# Type: cell-based
# stated-conditions: rabbit red blood cells in PBS, 37 °C, 1 h, absorbance at 405 nm, normalization to the Triton X-100 control; 0.25 to 128 μg/mL tested
Where a SMILES comes first, the peptide text is derived from it. [ ]: non-standard residue; d: D form. The star is where a group is joined. d(aIle) = CC[C@H](C)[C@@H](N)C(=O)O; dDab = NCC[C@@H](N)C(=O)O; Octanoyl = CCCCCCCC(=O)*; Dab = NCC[C@H](N)C(=O)O
Below is a list of entries, each paired with its recorded Hemolysis EC50 value.

Worked examples, 2 compounds total:
{"compound": "CCCCCCCC(=O)N[C@@H](C(=O)N[C@H](CCN)C(=O)NCC(=O)N[C@H](CO)C(=O)N[C@H](Cc1c[nH]c2ccccc12)C(=O)N[C@@H](CO)C(=O)N[C@@H](CCN)C(=O)N[C@H](CCN)C(=O)N[C@@H](CCC(=O)O)C(=O)N[C@@H](CCC(=O)O)C(=O)N[C@H](C(=O)N[C@@H](C(=O)N[C@@H](C)C(=O)O)[C@@H](C)CC)C(C)C)C(C)C [Oct-Glu9] (Octanoyl-[dV][dDab]G[dS][dW]S[Dab][dDab]EEV[d(aIle)]A-OH)", "measurement-target": "Rabbit red blood cells", "measurement-type": "Hemolysis EC50", "result-value": ">128 µg/mL"}
{"compound": "CCCCCCCC(=O)N[C@@H](C(=O)N[C@H](CCN)C(=O)NCC(=O)N[C@H](CO)C(=O)N[C@H](Cc1c[nH]c2ccccc12)C(=O)N[C@@H](CO)C(=O)N[C@@H](CCN)C(=O)N[C@H](CCN)C(=O)N[C@H](C(=O)N[C@@H](CCC(=O)O)C(=O)N[C@H](C(=O)N[C@@H](C(=O)N[C@@H](C)C(=O)O)[C@@H](C)CC)C(C)C)C(C)C)C(C)C [Oct-Val9] (Octanoyl-[dV][dDab]G[dS][dW]S[Dab][dDab]VEV[d(aIle)]A-OH)", "measurement-target": "Rabbit red blood cells", "measurement-type": "Hemolysis EC50", "result-value": ">128 µg/mL"}

Now for a further compound.
Entry CCCCCCCC(=O)N[C@@H](C(=O)N[C@H](CCN)C(=O)NCC(=O)N[C@H](CO)C(=O)N[C@H](Cc1c[nH]c2ccccc12)C(=O)N[C@@H](CO)C(=O)N[C@@H](CCN)C(=O)N[C@H](CCN)C(=O)N[C@H](C(=O)N[C@@H](CCC(=O)O)C(=O)N[C@H](C(=O)N[C@@H](C(=O)N[C@@H](C)C(=O)O)[C@@H](C)CC)C(C)C)[C@@H](C)CC)C(C)C [Oct-Ile9] (Octanoyl-[dV][dDab]G[dS][dW]S[Dab][dDab]IEV[d(aIle)]A-OH) ; Hemolysis EC50 = >128 µg/mL

---

MIC reference
# System: P. aeruginosa 1218019
# Format: cell-based, Pseudomonas aeruginosa
# stated-conditions: 1218019, 20 h
Where a SMILES comes first, the peptide text is derived from it. [ ]: non-standard residue; d: D form. The star is where a group is joined. d(aIle) = CC[C@H](C)[C@@H](N)C(=O)O; dDab = NCC[C@@H](N)C(=O)O; Octanoyl = CCCCCCCC(=O)*; Dab = NCC[C@H](N)C(=O)O
Give just the number in µg/mL; leave the unit off.

{"compound": "CCCCCCCC(=O)N[C@@H](C(=O)N[C@H](CCN)C(=O)NCC(=O)N[C@H](CO)C(=O)N[C@H](Cc1c[nH]c2ccccc12)C(=O)N[C@@H](CO)C(=O)N[C@@H](CCN)C(=O)N[C@H](CCN)C(=O)N[C@@H](Cc1ccccc1)C(=O)N[C@@H](CCC(=O)O)C(=O)N[C@H](C(=O)N[C@@H](C(=O)N[C@@H](C)C(=O)O)[C@@H](C)CC)C(C)C)C(C)C [Oct-TriA1] (Octanoyl-[dV][dDab]G[dS][dW]S[Dab][dDab]FEV[d(aIle)]A-OH)", "unit-descriptor": "µg/mL", "MIC": 4}
{"compound": "CCCCCCCC(=O)N[C@@H](C(=O)N[C@H](CCN)C(=O)NCC(=O)N[C@H](CO)C(=O)N[C@H](Cc1c[nH]c2ccccc12)C(=O)N[C@@H](CO)C(=O)N[C@@H](CCN)C(=O)N[C@H](CCN)C(=O)N[C@H](C(=O)N[C@@H](CCC(=O)O)C(=O)N[C@H](C(=O)N[C@@H](C(=O)N[C@@H](C)C(=O)O)[C@@H](C)CC)C(C)C)[C@@H](C)CC)C(C)C [Oct-Ile9] (Octanoyl-[dV][dDab]G[dS][dW]S[Dab][dDab]IEV[d(aIle)]A-OH)", "unit-descriptor": "µg/mL", "MIC": 16}

Lab note: measured MIC of CCCCCCCC(=O)N[C@@H](C(=O)N[C@H](CCN)C(=O)NCC(=O)N[C@H](CO)C(=O)N[C@H](Cc1c[nH]c2ccccc12)C(=O)N[C@@H](CO)C(=O)N[C@@H](CCN)C(=O)N[C@H](CCN)C(=O)N[C@@H](Cc1c[nH]c2ccccc12)C(=O)N[C@@H](CCC(=O)O)C(=O)N[C@H](C(=O)N[C@@H](C(=O)N[C@@H](C)C(=O)O)[C@@H](C)CC)C(C)C)C(C)C [Oct-TriA5] (Octanoyl-[dV][dDab]G[dS][dW]S[Dab][dDab]WEV[d(aIle)]A-OH) was 4

MIC reported for this compound CCCCCCCC(=O)N[C@@H](C(=O)N[C@H](CCN)C(=O)NCC(=O)N[C@H](CO)C(=O)N[C@H](Cc1c[nH]c2ccccc12)C(=O)N[C@@H](CO)C(=O)N[C@@H](CCN)C(=O)N[C@H](CCN)C(=O)N[C@H](C(=O)N[C@@H](CCC(=O)O)C(=O)N[C@H](C(=O)N[C@@H](C(=O)N[C@@H](C)C(=O)O)[C@@H](C)CC)C(C)C)C(C)C)C(C)C [Oct-Val9] (Octanoyl-[dV][dDab]G[dS][dW]S[Dab][dDab]VEV[d(aIle)]A-OH) : 16

---

# Test system: E. coli ATCC 25922
# Type: cell-based, Escherichia coli
# stated-conditions: ATCC 25922, 20 h
Where a SMILES comes first, the peptide text is derived from it. [ ]: non-standard residue; d: D form. The star is where a group is joined. d(aIle) = CC[C@H](C)[C@@H](N)C(=O)O; dDab = NCC[C@@H](N)C(=O)O; Octanoyl = CCCCCCCC(=O)*; Dab = NCC[C@H](N)C(=O)O
measurement-type: MIC (µg/mL)
A number alone suffices; assume µg/mL.

MIC reading for CCCCCCCC(=O)N[C@H](Cc1ccccc1)C(=O)N[C@H](CCN)C(=O)N[C@@H](C(=O)N[C@H](CO)C(=O)N[C@H](Cc1c[nH]c2ccccc12)C(=O)N[C@@H](CO)C(=O)N[C@@H](CO)C(=O)N[C@H](CCN)C(=O)N[C@@H](Cc1c[nH]c2ccccc12)C(=O)N[C@@H](CO)C(=O)N[C@H](C(=O)N[C@@H](C(=O)N[C@@H](CCN)C(=O)O)[C@@H](C)CC)C(C)C)[C@H](C)CC [Oct-TriD] (Octanoyl-[dF][dDab][dI][dS][dW]SS[dDab]WSV[d(aIle)][Dab]-OH) : 32

---

# Tested on: E. coli ATCC 25922
# Type: cell-based, Escherichia coli
# stated-conditions: ATCC 25922, 20 h
# Experimental: All minimum inhibitory concentrations (MICs) were determined according to the Clinical and Standards Laboratory Institute (CLSI) guidelines. In brief, agar plates were inoculated from glycerol stocks and incubated overnight at 35 °C. Peptide DMSO stocks were dispensed into 96-well round-bottom plates using a TECAN D300e dispenser. […] Images of all plates were recorded, and MIC was assessed visually.
Where a SMILES comes first, the peptide text is derived from it. [ ]: non-standard residue; d: D form. The star is where a group is joined. d(aIle) = CC[C@H](C)[C@@H](N)C(=O)O; dDab = NCC[C@@H](N)C(=O)O; Octanoyl = CCCCCCCC(=O)*; Dab = NCC[C@H](N)C(=O)O
Catalogue of MIC readings, one per entry.

{"compound": "CCCCCCCC(=O)N[C@@H](C(=O)N[C@H](CCN)C(=O)NCC(=O)N[C@H](CO)C(=O)N[C@H](Cc1c[nH]c2ccccc12)C(=O)N[C@@H](CO)C(=O)N[C@@H](CCN)C(=O)N[C@H](CCN)C(=O)N[C@@H](Cc1ccc(O)cc1)C(=O)N[C@@H](CCC(=O)O)C(=O)N[C@H](C(=O)N[C@@H](C(=O)N[C@@H](C)C(=O)O)[C@@H](C)CC)C(C)C)C(C)C [Oct-Tyr9] (Octanoyl-[dV][dDab]G[dS][dW]S[Dab][dDab]YEV[d(aIle)]A-OH)", "MIC": "2 µg/mL"}
{"compound": "CCCCCCCC(=O)N[C@@H](C(=O)N[C@H](CCN)C(=O)NCC(=O)N[C@H](CO)C(=O)N[C@H](Cc1c[nH]c2ccccc12)C(=O)N[C@@H](CO)C(=O)N[C@@H](CCN)C(=O)N[C@H](CCN)C(=O)N[C@@H](C)C(=O)N[C@@H](CCC(=O)O)C(=O)N[C@H](C(=O)N[C@@H](C(=O)N[C@@H](C)C(=O)O)[C@@H](C)CC)C(C)C)C(C)C [Oct-Ala9] (Octanoyl-[dV][dDab]G[dS][dW]S[Dab][dDab]AEV[d(aIle)]A-OH)", "MIC": "16 µg/mL"}

// below: MIC requested for another compound
Value (MIC, E. coli ATCC 25922) for record CCCCCCCC(=O)N[C@@H](C(=O)N[C@H](CCN)C(=O)NCC(=O)N[C@H](CO)C(=O)N[C@H](Cc1c[nH]c2ccccc12)C(=O)N[C@@H](CO)C(=O)N[C@@H](CCN)C(=O)N[C@H](CCN)C(=O)N[C@H](C(=O)N[C@@H](CCC(=O)O)C(=O)N[C@H](C(=O)N[C@@H](C(=O)N[C@@H](C)C(=O)O)[C@@H](C)CC)C(C)C)[C@@H](C)CC)C(C)C [Oct-Ile9] (Octanoyl-[dV][dDab]G[dS][dW]S[Dab][dDab]IEV[d(aIle)]A-OH) = 2 µg/mL
